Test system: Trypanosoma cruzi
ASSAY NOTES: Trypanosoma cruzi phosphomannomutase and mannose-1-phosphate guanylyltransferase assay
Type: functional
Parameters: scale not given: direction of the effect not stated beside the values
RUN PARAMETERS: 10 µM
RECORDED METRIC: Percent Effect (%)
Lab book: enter the figure in %, no units written.

Here is how some molecules turned out for Percent Effect.
molecule=Cc1ccc(CNC2CCN(CCc3ccncc3)CC2)cc1C test_result=5.47
molecule=O=C(C[C@@H]1COC[C@H]2CN(Cc3ccncc3)C[C@@H]12)N1CCOCC1 test_result=-6.88
molecule=CC(C)CNC(=O)Nc1ccc(CN2CCOC2=O)cc1 test_result=-2.23

As a next step, examine the molecule that follows.
Looking for the measured Percent Effect of `CC(=O)NCC(=O)N1CCN(CC2CC2)c2ncccc2C1` , can you help?
-0.394
